Here the recorded IC50 is given for each entry.
- measuredOn: BCL6 (Homo sapiens (Human))
- assayProcedure: Immunofluorescence high content imaging of BCL6 degradation in T47D cells
- Format: cell-based

*Q* Fill blank: measured IC50 of the molecule CNC(=O)CNc1cc2cc(Nc3nc(N4CCN(CC5CCN(c6ccc7c(c6)C(=O)N(C6CCC(=O)NC6=O)C7=O)CC5)CC4)ncc3Cl)ccc2n(C)c1=O (stereo not drawn) [compound 262] is ____.
*A* < 10 nM

*Q* Fill blank: measured IC50 of the molecule CNC(=O)COc1cc2cc(Nc3nc(N4CC5CC4CN5CC4CCN(c5ccc6c(c5)C(=O)N(C5CCC(=O)NC5=O)C6=O)CC4)ncc3Cl)ccc2n(C)c1=O (stereo not drawn) [compound 195] is ____.
*A* 10 to 50 nM

*Q* Fill blank: measured IC50 of the molecule CNC(=O)COc1cc2cc(Nc3nc(N4CCN(CC5CCN(c6ccc(C(=O)NC7CCC(=O)NC7=O)nc6)CC5)CC4)ncc3Cl)ccc2n(C)c1=O (stereo not drawn) [compound 232] is ____.
*A* 10 to 50 nM

====

Here the recorded EC50 is given for each entry.
- measuredOn: BCL6 (Homo sapiens (Human))
- assayProcedure: BCL6 TR-FRET assay (BCL6-Avitag-Biotin / BCoR-Cy5 peptide)
- Assay type: binding
- Description: Protein Synthesis. BCL6 protein was expressed by transforming Invitrogen One Shot cells with GS63525 pET24a-His-SUMO-TEV-BCLm-Avitag plasmid following manufacturer's instructions. In addition, biotin at a final concentration of 50 μM, and IPTG at a final concentration of 1 mM was added to the culture and incubated at room temperature shaking overnight. […] Mix 14 mls of BCoR-Cy5 [300 nM] and 14 mls [6 nM] […] The plates were incubated for 2 hours and then read on an Envision plate reader.

Examples from the recorded data:
>  <compound>
CNC(=O)COc1cc2cc(Nc3nc(N4CCC(CN5CC6CC5CN6c5ccc6c(c5)C(=O)N(C5CCC(=O)NC5=O)C6=O)CC4)ncc3Cl)ccc2n(C)c1=O (stereo not drawn)

>  <EC50>
10 to 50 nM

$$$$
>  <compound>
CNC(=O)COc1cc2cc(Nc3nc(N4CCN(CCN5CCN(c6ccc7c(c6)C(=O)N(C6CCC(=O)NC6=O)C7=O)CC5)CC4)ncc3Cl)ccc2n(C)c1=O (stereo not drawn)

>  <EC50>
10 to 50 nM

$$$$

*Q* Fill blank: measured EC50 of the compound CNC(=O)COc1cc2cc(Nc3nc(N4CCC(OC5CCN(c6ccc7c(c6)C(=O)N(C6CCC(=O)NC6=O)C7=O)CC5)CC4)ncc3Cl)ccc2n(C)c1=O (stereo not drawn) is ____.
*A* > 100 nM

====

- measuredOn: BCL6 (Homo sapiens (Human), UniProt P41182)
- assayProcedure: Immunofluorescence high content imaging of BCL6 degradation in T47D cells
- Assay type: cell-based
- recordedConditions: T47D, maximum, class symbols A-C
readoutLabel: Dmax

Examples from the recorded data:
>  <molecule>
CNC(=O)COc1cc2cc(Nc3nc(N4CCC(OCCOCCOCCOCCOCCOc5ccc6c(c5)CN(C5CCC(=O)NC5=O)C6=O)CC4)ncc3Cl)ccc2n(C)c1=O (stereo not shown)

>  <Dmax>
≥ 70%

$$$$
>  <molecule>
CNC(=O)COc1cc2cc(Nc3nc(N4CCC(CN5CCN(c6ccc7c(c6)CN(C6CCC(=O)NC6=O)C7=O)CC5)CC4)ncc3Cl)ccc2n(C)c1=O (stereo not shown)

>  <Dmax>
50 to 70%

$$$$
>  <molecule>
CC(=O)COc1cc2cc(Nc3nc(N4CCN(CCCN5CCN(c6ccc7c(c6)CN(C6CCC(=O)NC6=O)C7=O)CC5)CC4)ncc3Cl)ccc2n(C)c1=O (stereo not shown)

>  <Dmax>
< 50%

$$$$
>  <molecule>
CC(=O)COc1cc2cc(Nc3nc(C#CC4CCN(c5ccc6c(c5)C(=O)N(C5CCC(=O)NC5=O)C6=O)CC4)ncc3Cl)ccc2n(C)c1=O (stereo not shown)

>  <Dmax>
< 50%

$$$$
>  <molecule>
CC(=O)COc1cc2cc(Nc3nc(N4CCN(C5CCN(c6ccc7c(c6)C(=O)N(C6CCC(=O)NC6=O)C7=O)CC5)CC4)ncc3Cl)ccc2n(C)c1=O (stereo not shown)

>  <Dmax>
50 to 70%

$$$$

*Q* Fill blank: measured Dmax of the molecule CC(=O)COc1cc2cc(Nc3nc(N4CCC(CN5CCN(c6ccc7c(c6)C(=O)N(C6CCC(=O)NC6=O)C7=O)CC5)CC4)ncc3Cl)ccc2n(C)c1=O (stereo not shown) is ____.
*A* 50 to 70%

====

- measuredOn: BCL6 (Homo sapiens (Human))
- assayProcedure: Immunofluorescence high content imaging of BCL6 degradation in T47D cells
- Format: cell-based
- recordedConditions: T47D cells
readoutLabel: Dmax

>  <compound>
CNC(=O)COc1cc2cc(Nc3nc(N4CCC(CN5[C@H](C)CN(c6cccc7c6C(=O)N(C6CCC(=O)NC6=O)C7=O)C[C@@H]5C)CC4)ncc3Cl)ccc2n(C(C)C)c1=O (mixture of isomers)

>  <Dmax>
50 to 70%

$$$$
>  <compound>
CNC(=O)COc1cc2cc(Nc3nc(N4CCC(CN5CCC6(CCN(c7ccc8c(c7)CN(C7CCC(=O)NC7=O)C8=O)C6)C5)CC4)ncc3Cl)ccc2n(C(C)C)c1=O (centres unmarked)

>  <Dmax>
≥ 70%

$$$$
>  <compound>
CNC(=O)COc1cc2cc(Nc3nc(N4CCN(CC5CCN(c6cc(OC)cc7c6C(=O)N(C6CCC(=O)NC6=O)C7=O)CC5)CC4)ncc3Cl)ccc2n(C(C)C)c1=O (centres unmarked)

>  <Dmax>
≥ 70%

$$$$

*Q* Fill blank: measured Dmax of the compound CNC(=O)COc1cc2cc(Nc3nc(N4CCO[C@H](COc5ccc(C(=O)NC6CCC(=O)NC6=O)cc5)C4)ncc3Cl)ccc2n(C(C)C)c1=O (some centres unmarked) is ____.
*A* < 50%

*Q* Fill blank: measured Dmax of the compound CNC(=O)COc1cc2cc(Nc3nc(N4CCN(CC5(F)CCN(c6ccc(C(=O)NC7CCC(=O)NC7=O)c(OC)c6)CC5)CC4)ncc3Cl)ccc2n(C)c1=O (centres unmarked) is ____.
*A* 50 to 70%

*Q* Fill blank: measured Dmax of the compound CNC(=O)COc1cc2cc(Nc3nc(N4CCC(OC5CC6(C5)CN(c5cccc(C(=O)NC7CCC(=O)NC7=O)c5F)C6)CC4)ncc3Cl)ccc2n(C(C)C)c1=O (centres unmarked) is ____.
*A* 50 to 70%

*Q* Fill blank: measured Dmax of the compound CC[C@H]1CN(c2ncc(Cl)c(Nc3ccc4c(c3)cc(OCC(=O)NC)c(=O)n4C(C)C)n2)C[C@@H](COc2ccc3c(c2)C(=O)N(C2CCC(=O)NC2=O)C3=O)O1 (some centres unmarked) is ____.
*A* 50 to 70%

*Q* Fill blank: measured Dmax of the compound CNC(=O)COc1cc2cc(Nc3nc(N4CCC(CN5CCC(c6nc(C(=O)NC7CCC(=O)NC7=O)cs6)CC5)CC4)ncc3Cl)ccc2n(C)c1=O (centres unmarked) is ____.
*A* 50 to 70%

====

- measuredOn: BCL6 (Homo sapiens (Human), UniProt P41182)
- assayProcedure: Immunofluorescence high content imaging of BCL6 degradation in T47D cells
- Type: cell-based
- recordedConditions: class symbols A-D, read-out: EC50 (nM)*
readoutLabel: DC50

Examples from the recorded data:
>  <compound>
CNC(=O)COc1cc2cc(Nc3nc(N4CCC(N(C)C5CCN(CC6CCN(c7ccc(C#Cc8ccc9c(c8)CN(C8CCC(=O)NC8=O)C9=O)cc7)CC6)CC5)CC4)ncc3Cl)ccc2n(C)c1=O (stereo not shown) [compound 138]

>  <measuredOn>
BCL6 (Homo sapiens (Human), UniProt P41182)

>  <recordedMeasurement>
10 to 50 nM

$$$$
>  <compound>
CN1C(=O)CCc2cc(Nc3cc(OC4CCN(CCOCCOc5ccc6c(c5)C(=O)N(C5CCC(=O)NC5=O)C6=O)CC4)c([N+](=O)[O-])cc3Cl)ccc21 (stereo not shown) [compound 73]

>  <measuredOn>
BCL6 (Homo sapiens (Human), UniProt P41182)

>  <recordedMeasurement>
> 100 nM

$$$$
>  <compound>
CNC(=O)COc1cc2cc(Nc3nc(N4CCC(OCCOCCOCCOCCOCC(=O)N[C@H](C(=O)N5C[C@H](O)C[C@H]5C(=O)NCc5ccc(-c6scnc6C)cc5)C(C)(C)C)CC4)ncc3Cl)ccc2n(C)c1=O [compound 78]

>  <measuredOn>
BCL6 (Homo sapiens (Human), UniProt P41182)

>  <recordedMeasurement>
10 to 50 nM

$$$$

*Q* Fill blank: measured DC50 of the compound CNC(=O)COc1cc2cc(Nc3nc(N4CCC(OCCOCCOc5ccc6c(c5)CN(C5CCC(=O)NC5=O)C6=O)CC4)ncc3Cl)ccc2n(C)c1=O (stereo not shown) [compound 61] is ____.
*A* 10 to 50 nM

*Q* Fill blank: measured DC50 of the compound CNC(=O)COc1cc2cc(Nc3nc(N4CCC(CN5CCN(c6ccc7c(c6)C(=O)N(C6CCC(=O)NC6=O)C7=O)CC5)CC4)ncc3Cl)ccc2n(C)c1=O (stereo not shown) [compound 104] is ____.
*A* 10 to 50 nM

*Q* Fill blank: measured DC50 of the compound CNC(=O)COc1cc2cc(Nc3nc(N4CCC(OCCOCCOCC(=O)N[C@H](C(=O)N5C[C@H](O)C[C@H]5C(=O)NCc5ccc(-c6scnc6C)cc5)C(C)(C)C)CC4)ncc3Cl)ccc2n(C)c1=O [compound 70] is ____.
*A* > 100 nM

*Q* Fill blank: measured DC50 of the compound CN(C)C(=O)COc1cc2cc(Nc3nc(N4CCC(OCCOCCOCCOCCOCCOc5ccc6c(c5)CN(C5CCC(=O)NC5=O)C6=O)CC4)ncc3Cl)ccc2n(C)c1=O (stereo not shown) [compound 99] is ____.
*A* > 100 nM

*Q* Fill blank: measured DC50 of the compound CNC(=O)COc1cc2cc(Nc3nc(N4CCC(c5ccccc5OCCCOCCOCCOCCOc5ccc6c(c5)CN(C5CCC(=O)NC5=O)C6=O)CC4)ncc3Cl)ccc2n(C)c1=O (stereo not shown) [compound 90] is ____.
*A* > 100 nM

Data provenance: patent US12310975B2
